As shown below, each of these compounds has a reported IC50 value.
# targetSystem: AVP-V2 sites (Rattus norvegicus)
# Construct: male rat liver (AVP-V1 sites) or kidney medulla (AVP-V2 sites); from tissue; host or cells: male rat kidney medulla, crude membranes
# Sequence (Q00788 whole entry): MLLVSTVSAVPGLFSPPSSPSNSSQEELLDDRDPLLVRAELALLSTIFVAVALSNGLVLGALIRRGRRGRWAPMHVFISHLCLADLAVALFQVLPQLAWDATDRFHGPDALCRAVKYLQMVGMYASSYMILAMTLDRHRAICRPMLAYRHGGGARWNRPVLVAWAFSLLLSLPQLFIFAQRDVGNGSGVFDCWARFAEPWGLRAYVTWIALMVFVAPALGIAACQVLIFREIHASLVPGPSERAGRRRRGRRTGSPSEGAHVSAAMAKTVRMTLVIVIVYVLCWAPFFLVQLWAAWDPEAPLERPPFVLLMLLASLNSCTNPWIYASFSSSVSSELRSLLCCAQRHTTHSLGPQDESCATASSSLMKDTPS
# experimentalDetails: [^3 H]AVP binding to crude membrane preparation of male rat kidney medulla (AVP-V2 sites)
# assayContext: rat kidney medulla membranes, 2 nM [^3 H]AVP; read-out: Receptor Binding Results IC50 (nM) [^3 H]-AVP-V2
# Description: Nonspecific binding (5-10% of the total binding) was determined using 10 μM unlabeled AVP, and the binding reaction was terminated by filtration as described above for the [^3 H]OT binding assay.
Numbered stars: 1 amine (or outer) side, 2 acyl side, 3 side chain; on linkers, the order of the positions; unused ones are H or OH. Square brackets hold non-standard residues; d marks the D form. Peptide text beside a SMILES is read from it. * marks the point of attachment. dPip(4-aza,4-Cbz) = O=C(O)[C@H]1CN(C(=O)OCc2ccccc2)CCN1; X2 = O=C(OCc1ccccc1)N1CCN([*:1])[C@H](C(=O)[*:2])C1; dPiz(1,6-dehydro) = O=C(O)[C@H]1CCC=NN1; d2Nal = N[C@H](Cc1ccc2ccccc2c1)C(=O)O; X1 = O=C([C@H]1C=CCCN1[*:1])[*:2]; dNMeF = CN[C@H](Cc1ccccc1)C(=O)O; Pip = O=C(O)[C@@H]1CCCCN1; dPip = O=C(O)[C@H]1CCCCN1; Orn = NCCC[C@H](N)C(=O)O; Cbz = O=C(OCc1ccccc1)*; Dap = NC[C@H](N)C(=O)O; Boc = CC(C)(C)OC(=O)*

{"columns": ["compound", "targetSystem", "relationalOperator", "IC50, nM"],
 "data": [
  ["CC[C@H](C)[C@@H]1NC(=O)[C@@H](Cc2c[nH]c3ccccc23)NC(=O)[C@@H]2CCCN2C(=O)[C@@H](Cc2ccccc2)N(C)C(=O)[C@H](CCCN)NC(=O)[C@H]2CCC=NN2C1=O [Example 127] (cyclo(I[dPiz(1,6-dehydro)][Orn][dNMeF]P[dW]))", "AVP-V2 sites (Rattus norvegicus)", "=", 330],
  ["CC[C@H](C)[C@@H]1NC(=O)[C@@H](Cc2ccccc2)NC(=O)[C@@H]2CCCN2C(=O)[C@@H](Cc2ccccc2)N(C)C(=O)[C@@H]2CCCCN2C(=O)[C@H]2C=CCCN2C1=O [Example 24] (cyclo(I[X1][Pip][dNMeF]P[dF]))", "AVP-V2 sites (Rattus norvegicus)", "=", 10000],
  ["CC[C@H](C)[C@@H]1NC(=O)[C@@H](Cc2ccc(OC)cc2)NC(=O)[C@@H]2CCCN2C(=O)[C@@H](Cc2ccccc2)N(C)C(=O)[C@H](CCCCNC(=O)OC(C)(C)C)NC(=O)[C@H]2CCCCN2C1=O [Example 149] (cyclo(I[dPip]K(Boc)[dNMeF]P[dY](Me)))", "AVP-V2 sites (Rattus norvegicus)", "=", 10000],
  ["CC[C@H](C)[C@@H]1NC(=O)[C@@H](Cc2ccccc2)NC(=O)[C@@H]2CCCN2C(=O)[C@@H](Cc2c[nH]cn2)NC(=O)[C@H](CCCCNC(=O)OCc2ccccc2)NC(=O)[C@H]2CCCCN2C1=O [Example 37] (cyclo(I[dPip]K(Cbz)[dH]P[dF]))", "AVP-V2 sites (Rattus norvegicus)", ">", 10000],
  ["CC[C@H](C)[C@@H]1NC(=O)[C@@H](Cc2ccccc2)NC(=O)[C@@H]2CCCN2C(=O)[C@@H](Cc2ccccc2)N(C)C(=O)[C@H](CN)NC(=O)[C@H]2CCCCN2C1=O [Example 121] (cyclo([Dap][dNMeF]P[dF]I[dPip]))", "AVP-V2 sites (Rattus norvegicus)", "=", 10000],
  ["CC[C@H](C)[C@@H]1NC(=O)[C@@H](Cc2c[nH]c3ccccc23)NC(=O)[C@@H]2CCCN2C(=O)[C@@H](Cc2cnc[nH]2)NC(=O)[C@@H]2CCCCN2C(=O)[C@H]2CCC=NN2C1=O [Example 184] (cyclo(I[dPiz(1,6-dehydro)][Pip][dH]P[dW]))", "AVP-V2 sites (Rattus norvegicus)", "=", 1050],
  ["CC[C@H](C)[C@@H]1NC(=O)[C@@H](Cc2c[nH]c3ccccc23)NC(=O)[C@@H]2CCCN2C(=O)[C@@H](Cc2c[nH]cn2)NC(=O)[C@H](CCCCNC(=O)OCc2ccccc2)NC(=O)[C@H]2CCCCN2C1=O [Example 38] (cyclo(I[dPip]K(Cbz)[dH]P[dW]))", "AVP-V2 sites (Rattus norvegicus)", "=", 10000],
  ["CC[C@H](C)[C@@H]1NC(=O)[C@@H](Cc2ccc3ccccc3c2)NC(=O)[C@@H]2CCCN2C(=O)[C@@H](Cc2ccccc2)N(C)C(=O)[C@@H]2CN(C(=O)OCc3ccccc3)CCN2C(=O)[C@H]2CCCCN2C1=O [Example 169] (cyclo(I[dPip][X2][dNMeF]P[d2Nal]))", "AVP-V2 sites (Rattus norvegicus)", "=", 10000],
  ["CC[C@H](C)[C@@H]1NC(=O)[C@@H](Cc2ccccc2)NC(=O)[C@@H]2CCCN2C(=O)C(Cc2cccnc2)NC(=O)[C@@H]2CCCCN2C(=O)[C@H]2CCCCN2C1=O (single isomer, unassigned) [Example 10 (isomer 1)]", "AVP-V2 sites (Rattus norvegicus)", ">", 10000],
  ["CC[C@H](C)[C@@H]1NC(=O)[C@@H](Cc2ccccc2)NC(=O)[C@@H]2CCCN2C(=O)[C@@H](Cc2ccccc2)NC(=O)[C@@H]2CN(C(=O)OCc3ccccc3)CCN2C(=O)[C@H]2CN(C(=O)OCc3ccccc3)CCN2C1=O [Example 79] (cyclo(I[dPip(4-aza,4-Cbz)][X2][dF]P[dF]))", "AVP-V2 sites (Rattus norvegicus)", "=", 10000]
]}
